# Test: Selectivity index, ratio of IC50 for mouse J774.A1 cells to IC50 for Leishmania braziliensis
# Type: toxicity, cell-based
# Assay conditions: J774.A1 cells versus Leishmania braziliensis, read-out: Ratio IC50
Catalogue of selectivity ratio readings, one per entry.
Measured metric: selectivity ratio

Compound: CC(C)[C@@]12CC[C@]3(C=O)CC[C@]4(C)C(=C31)C(C[C@@H]1[C@@]3(C)CC[C@H](O)C(C)(C)[C@@H]3CC[C@]14C)n1c(=O)n(C)c(=O)n12 (some centres undefined)
Result: > 5
--
Compound: C=C(C)[C@@H]1CC[C@]2(/C=N/O)CC[C@]3(C)[C@H](CC[C@@H]4[C@@]5(C)CC[C@H](O)C(C)(C)[C@@H]5CC[C@]43C)[C@@H]12
Result: > 2.5
--
Compound: CC(C)[C@@]12CC[C@]3(COC=O)CC[C@]4(C)C(=C31)C(C[C@@H]1[C@@]3(C)CC[C@H](OC=O)C(C)(C)[C@@H]3CC[C@]14C)n1c(=O)n(C)c(=O)n12 (some centres undefined)
Result: > 40
--
Compound: C=C(C)[C@@H]1CC[C@]2(/C=N/O)CC[C@]3(C)[C@H](CC[C@@H]4[C@@]5(C)CC/C(=N\O)C(C)(C)[C@@H]5CC[C@]43C)[C@@H]12
Result: > 3

====

# Tested on: Leishmania braziliensis
# Test: Antiparasitic activity against Leishmania braziliensis assessed as inhibition of growth after 72 hrs
# Type: functional, organism-based
pIC50: −log10 of the molar value.
# reported pIC50; entries follow

Compound: CC(C)[C@@]12CC[C@]3(COC=O)CC[C@]4(C)C(=C31)C(C[C@@H]1[C@@]3(C)CC[C@H](OC=O)C(C)(C)[C@@H]3CC[C@]14C)n1c(=O)n(C)c(=O)n12 (some centres undefined)
Target or test system: Leishmania braziliensis
pIC50: 6.60
--
Compound: C=C(C)[C@@H]1CC[C@]2(/C=N/O)CC[C@]3(C)[C@H](CC[C@@H]4[C@@]5(C)CC[C@H](O)C(C)(C)[C@@H]5CC[C@]43C)[C@@H]12
Target or test system: Leishmania braziliensis
pIC50: 5.39
--
Compound: CC(C)[C@@]12CC[C@]3(C=O)CC[C@]4(C)C(=C31)C(C[C@@H]1[C@@]3(C)CC[C@H](O)C(C)(C)[C@@H]3CC[C@]14C)n1c(=O)n(C)c(=O)n12 (some centres undefined)
Target or test system: Leishmania braziliensis
pIC50: 5.69
--
Compound: C=C(C)[C@@H]1CC[C@]2(/C=N/O)CC[C@]3(C)[C@H](CC[C@@H]4[C@@]5(C)CC/C(=N\O)C(C)(C)[C@@H]5CC[C@]43C)[C@@H]12
Target or test system: Leishmania braziliensis
pIC50: 5.47

====

Recorded inhibition at 1 µM, one value per entry.
# Test system: Leishmania braziliensis
# Test: Leishmanicidal activity against Leishmania braziliensis assessed as dead cells at 10^-6 M after 30 mins by chemotactic assay
# Format: functional
# Assay conditions: 0.5 h
Measured metric: inhibition at 1 µM (%)

Molecule: CC(C)[C@@]12CC[C@]3(C=O)CC[C@]4(C)C(=C31)C(C[C@@H]1[C@@]3(C)CC[C@H](O)C(C)(C)[C@@H]3CC[C@]14C)n1c(=O)n(C)c(=O)n12 (some centres undefined)
Readout unit: %
Number: 25

Molecule: C=C(C)[C@@H]1CC[C@]2(/C=N/O)CC[C@]3(C)[C@H](CC[C@@H]4[C@@]5(C)CC/C(=N\O)C(C)(C)[C@@H]5CC[C@]43C)[C@@H]12 [BETULIN-3,28-DIOXIME]
Readout unit: %
Number: 25

Molecule: C=C(C)[C@@H]1CC[C@]2(/C=N/O)CC[C@]3(C)[C@H](CC[C@@H]4[C@@]5(C)CC[C@H](O)C(C)(C)[C@@H]5CC[C@]43C)[C@@H]12
Readout unit: %
Number: 66

Molecule: CC(C)[C@@]12CC[C@]3(COC=O)CC[C@]4(C)C(=C31)C(C[C@@H]1[C@@]3(C)CC[C@H](OC=O)C(C)(C)[C@@H]3CC[C@]14C)n1c(=O)n(C)c(=O)n12 (some centres undefined)
Readout unit: %
Number: 25
